Form field: IC50 (one value per entry).
- assay: Cell membrane permeabilization in human WS1 cells assessed as drug level causing decrease in calcein fluorescence
- Format: ADME, cell-based

Consider the worked cases shown below.
# molecule, IC50
data = [
    ("C=C(C)[C@@H]1CC[C@]2(CO[C@@H]3O[C@H](CO)[C@@H](O)[C@H](O)[C@H]3O)CC[C@]3(C)[C@H](CC[C@@H]4[C@@]5(C)CC[C@H](O[C@@H]6OC[C@H](O)[C@H](O)[C@H]6O)C(C)(C)[C@@H]5CC[C@]43C)[C@@H]12", "> 200 µM"),
    ("C=C(C)[C@@H]1CC[C@]2(CO)CC[C@]3(C)[C@H](CC[C@@H]4[C@@]5(C)CC[C@H](O[C@H]6O[C@H](CO)[C@@H](O)[C@H](O)[C@@H]6O)C(C)(C)[C@@H]5CC[C@]43C)[C@@H]12", "> 200 µM"),
    ("C=C(C)[C@@H]1CC[C@]2(C(=O)O)CC[C@]3(C)[C@H](CC[C@@H]4[C@@]5(C)CC[C@H](O[C@@H]6OC[C@H](O[C@@H]7O[C@H](CO)[C@@H](O)[C@H](O)[C@H]7O)[C@H](O)[C@H]6O[C@@H]6O[C@@H](C)[C@H](O)[C@@H](O)[C@H]6O)C(C)(C)[C@@H]5CC[C@]43C)[C@@H]12", "> 200 µM"),
    ("C=C(C)[C@@H]1CC[C@]2(C(=O)O[C@@H]3O[C@H](CO)[C@@H](O)[C@H](O)[C@H]3O)CC[C@]3(C)[C@H](CC[C@@H]4[C@@]5(C)CC[C@H](O[C@@H]6O[C@@H](C)[C@H](O)[C@@H](O)[C@H]6O)C(C)(C)[C@@H]5CC[C@]43C)[C@@H]12", "> 200 µM"),
    ("C=C(C)[C@@H]1CC[C@]2(CO[C@@H]3O[C@@H](C)[C@H](O)[C@@H](O)[C@H]3O)CC[C@]3(C)[C@H](CC[C@@H]4[C@@]5(C)CC[C@H](O[C@@H]6O[C@@H](C)[C@H](O)[C@@H](O)[C@H]6O)C(C)(C)[C@@H]5CC[C@]43C)[C@@H]12", "> 200 µM"),
]

So, CC1(C)CC[C@]2(C(=O)O)CC[C@]3(C)C(=CC[C@@H]4[C@@]5(C)CC[C@H](O[C@@H]6O[C@H](CO)[C@@H](O)[C@H](O)[C@H]6O)[C@@](C)(CO)[C@@H]5CC[C@]43C)[C@@H]2C1 [Hederagenin-3-O-beta-D-glucopyranoside] ? Its IC50 was 102 µM

molecule C=C(C)[C@@H]1CC[C@]2(C(=O)O)CC[C@]3(C)[C@H](CC[C@@H]4[C@@]5(C)CC[C@H](O[C@@H]6O[C@@H](CO)[C@H](O)[C@H]6O)C(C)(C)[C@@H]5CC[C@]43C)[C@@H]12 , IC50 observed: > 200 µM

Entry C=C(C)[C@@H]1CC[C@]2(CO)CC[C@]3(C)[C@H](CC[C@@H]4[C@@]5(C)CC[C@H](O[C@@H]6O[C@H](CO)[C@@H](O)[C@H](O)[C@H]6O)C(C)(C)[C@@H]5CC[C@]43C)[C@@H]12 , IC50 reported as > 200 µM

The recorded IC50 for entry C[C@@H]1O[C@@H](O[C@H]2[C@H](O[C@H]3CC[C@]4(C)[C@H]5CC=C6[C@@H]7CC(C)(C)CC[C@]7(C(=O)O)CC[C@@]6(C)[C@]5(C)CC[C@H]4C3(C)C)OC[C@H](O[C@@H]3O[C@H](CO)[C@@H](O)[C@H](O)[C@H]3O)[C@@H]2O)[C@H](O)[C@H](O)[C@H]1O [HEDERACOLCHISIDE A1] equals 3 µM

Value of IC50 reported for the molecule C[C@@H]1O[C@@H](O[C@H]2[C@H](O[C@H]3CC[C@]4(C)[C@H]5CC=C6[C@@H]7CC(C)(C)CC[C@]7(C(=O)O)CC[C@@]6(C)[C@]5(C)CC[C@H]4C3(C)C)OC[C@H](O)[C@@H]2O)[C@H](O)[C@H](O)[C@H]1O is 2.8 µM

Record summary for CC1(C)CC[C@]2(C(=O)O)CC[C@]3(C)C(=CC[C@@H]4[C@@]5(C)CC[C@H](O)[C@@](C)(CO)[C@@H]5CC[C@]43C)[C@@H]2C1 : reported IC50 = > 200 µM

// field: IC50; key: C=C(C)[C@@H]1CC[C@]2(C(=O)O)CC[C@]3(C)[C@H](CC[C@@H]4[C@@]5(C)CC[C@H](O[C@@H]6OC[C@@H](O)[C@H](O)[C@H]6O)C(C)(C)[C@@H]5CC[C@]43C)[C@@H]12 ; value = > 200 µM

# IC50 (molecule: C[C@@H]1O[C@@H](O[C@H]2[C@H](O[C@H]3CC[C@@]4(C)[C@@H](CC[C@]5(C)[C@@H]4CC=C4[C@@H]6CC(C)(C)CC[C@]6(C(=O)O)CC[C@]45C)[C@]3(C)CO)OC[C@H](O[C@@H]3O[C@H](CO)[C@@H](O)[C@H](O)[C@H]3O)[C@@H]2O)[C@H](O)[C@H](O)[C@H]1O [HEDERACOLCHISIDE A] ) is 86 µM

The molecule identified as C=C(C)[C@@H]1CC[C@]2(C(=O)O[C@@H]3O[C@H](CO)[C@@H](O)[C@H](O)[C@H]3O)CC[C@]3(C)[C@H](CC[C@@H]4[C@@]5(C)CC[C@H](O[C@@H]6O[C@H](CO)[C@@H](O)[C@H](O)[C@H]6O)C(C)(C)[C@@H]5CC[C@]43C)[C@@H]12 registered its IC50 at > 200 µM

For this molecule ( C=C(C)[C@@H]1CC[C@]2(C(=O)O)CC[C@]3(C)[C@H](CC[C@@H]4[C@@]5(C)CC[C@H](O[C@H]6OC[C@@H](O)[C@@H](O)[C@@H]6O)C(C)(C)[C@@H]5CC[C@]43C)[C@@H]12 ), measured IC50 is > 200 µM
